study target: UniProt P61169
Sequence (P61169 whole entry): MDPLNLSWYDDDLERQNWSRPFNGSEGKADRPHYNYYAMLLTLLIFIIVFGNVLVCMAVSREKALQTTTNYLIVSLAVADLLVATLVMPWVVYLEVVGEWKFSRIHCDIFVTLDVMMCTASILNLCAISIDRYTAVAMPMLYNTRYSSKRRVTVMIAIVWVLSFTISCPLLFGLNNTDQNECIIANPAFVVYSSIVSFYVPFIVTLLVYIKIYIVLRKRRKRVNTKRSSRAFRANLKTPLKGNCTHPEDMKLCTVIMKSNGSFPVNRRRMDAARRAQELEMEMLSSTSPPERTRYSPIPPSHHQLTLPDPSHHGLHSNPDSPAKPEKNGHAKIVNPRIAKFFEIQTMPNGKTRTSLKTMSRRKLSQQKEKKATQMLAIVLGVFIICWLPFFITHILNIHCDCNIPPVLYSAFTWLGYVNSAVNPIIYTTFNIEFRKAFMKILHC
experimental details: Binding affinity against dopamine receptor D2 from rat striatal homogenates using [3H]YM-09151-2
pIC50: −log10 of the molar value.
Field: pIC50. Provide a value for each of the compounds that follow.

**Q:** Request body: readout pIC50, system UniProt P61169, query NC1Cc2cc(O)c(O)cc2C(c2ccccc2)C1 (trans isomer) . Return the value.
**A:** < 4.52

**Q:** And C=CCN(CC=C)C1Cc2ccccc2C(c2ccccc2)C1 (stereo not drawn) ?
**A:** 5.40

**Q:** And C=CCNC1Cc2ccccc2C(c2ccccc2)C1 (trans isomer) ?
**A:** 5.22

**Q:** And NC1Cc2cc(O)c(O)cc2C(c2ccccc2)C1 (cis isomer) ?
**A:** < 5.00

**Q:** And CN(C)C1Cc2cc(O)c(O)cc2C(c2ccccc2)C1 (cis isomer) ?
**A:** < 5.30

**Q:** And CN(C)C1Cc2cc(O)c(O)cc2C(c2ccccc2)C1 (trans isomer) ?
**A:** < 5.30

**Q:** And NC1Cc2ccccc2C(c2ccccc2)C1 (trans isomer) ?
**A:** < 5.00

As a next step, examine the compound that follows.
**Q:** Request body: readout pIC50, system UniProt P61169, query "CN(C)[C@H]1Cc2cc(Cl)c(O)cc2[C@H](c2ccccc2)C1" . Return the value.
**A:** 5.38

###

study target: D(1A) dopamine receptor (Rattus norvegicus, UniProt P18901)
Sequence (P18901 whole entry): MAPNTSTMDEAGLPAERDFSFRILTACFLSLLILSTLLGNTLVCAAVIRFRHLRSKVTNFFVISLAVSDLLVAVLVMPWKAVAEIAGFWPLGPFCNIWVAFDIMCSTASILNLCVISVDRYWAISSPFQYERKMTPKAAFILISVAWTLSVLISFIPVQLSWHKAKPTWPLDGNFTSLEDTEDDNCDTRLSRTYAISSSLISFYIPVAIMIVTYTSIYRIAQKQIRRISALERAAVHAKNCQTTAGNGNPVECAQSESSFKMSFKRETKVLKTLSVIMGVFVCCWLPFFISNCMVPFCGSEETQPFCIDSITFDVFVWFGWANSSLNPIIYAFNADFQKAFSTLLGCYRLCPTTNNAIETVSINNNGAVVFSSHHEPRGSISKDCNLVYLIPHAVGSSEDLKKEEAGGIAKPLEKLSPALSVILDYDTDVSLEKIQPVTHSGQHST
experimental details: Binding affinity against dopamine receptor D1 from rat striatal homogenates, using [3H]SCH-23,390 as radioligand
measurement kind: pIC50
Give bare numbers, as −log10 of the molar value.

**Q:** Which pIC50 value is on record for "CN(C)[C@H]1Cc2cc(Cl)c(O)cc2[C@H](c2ccccc2)C1" ?
**A:** 5.72

As a next step, examine the molecule that follows.
**Q:** Which pIC50 value is on record for CNC1Cc2cc(Cl)c(O)cc2C(c2ccccc2)C1 (trans isomer) ?
**A:** 6.07

###

study target: Tyrosine 3-monooxygenase (Rattus norvegicus)
experimental details: Tyrosine hydroxylase activity at 0.1 uM in rat striatal minces
Type: functional
Field: Control. Provide a value for each of the molecules that follow.
Kindly report the value followed by its unit.

**Q:** Which Control value is on record for CN(C)C1Cc2cc(Cl)c(O)cc2C(c2ccccc2)C1 (cis isomer) ?
**A:** 94%

**Q:** And C=CCNC1Cc2ccccc2C(c2ccccc2)C1 (trans isomer) ?
**A:** 102%

**Q:** And CNC1Cc2cc(Cl)c(O)cc2C(c2ccccc2)C1 (trans isomer) ?
**A:** 99%

# return Control for each item in the list
1. C=CCN(CC=C)C1Cc2ccccc2C(c2ccccc2)C1 (stereo not given)
2. NC1Cc2ccccc2C(c2ccccc2)C1 (trans isomer)

**A:**
104%
86%

###

Field: pIC50. Provide a value for each of the compounds that follow.
study target: D(1A) dopamine receptor (Rattus norvegicus)
experimental details: Binding affinity against dopamine receptor D1 from rat striatal homogenates, using [3H]SCH-23390 as radioligand.
pIC50: −log10 of the molar value.

Please review the following examples before continuing.
**Q:** Which pIC50 value is on record for C=CCN(CC=C)C1Cc2ccccc2C(c2ccccc2)C1 (configuration not stated) ?
**A:** 5.00

**Q:** And NC1Cc2cc(O)c(O)cc2C(c2ccccc2)C1 (cis isomer) ?
**A:** < 4.52

# return pIC50 for each item in the list
1. NC1Cc2cc(O)c(O)cc2C(c2ccccc2)C1 (trans isomer)
2. C=CCNC1Cc2ccccc2C(c2ccccc2)C1 (trans isomer)

**A:**
1. < 4.52
2. 5.00

# return pIC50 for each item in the list
1. CN(C)C1Cc2cc(O)c(O)cc2C(c2ccccc2)C1 (trans isomer)
2. NC1Cc2ccccc2C(c2ccccc2)C1 (trans isomer)

**A:**
["< 5.00", "< 5.00"]

**Q:** Which pIC50 value is on record for CN(C)C1Cc2cc(O)c(O)cc2C(c2ccccc2)C1 (cis isomer) ?
**A:** < 6.00

###

study target: Tyrosine 3-monooxygenase (Rattus norvegicus)
experimental details: Tyrosine hydroxylase activity at 0.1 uM in rat striatal minces
Format: functional
measurement kind: Control (%)
Numbers only, in %.

# return Control for each item in the list
1. NC1Cc2cc(O)c(O)cc2C(c2ccccc2)C1 (cis isomer)
2. CN(C)[C@H]1CCc2ccccc2[C@H]1c1ccccc1
3. CCN(CC)C1Cc2ccccc2C(c2ccccc2)C1 (trans isomer)
4. C=CCN(C)C1Cc2ccccc2C(c2ccccc2)C1 (stereo unspecified)

**A:**
95
111
95
72

# return Control for each item in the list
1. CN(C)C1Cc2ccccc2C(c2ccccc2)C1 (stereo unspecified)
2. CN(C)C1Cc2cc(O)c(O)cc2C(c2ccccc2)C1 (cis isomer)

**A:**
1: 101; 2: 100
